test system: Plasmodium falciparum; test: Antiplasmodial activity against Plasmodium falciparum 3D7; format: functional, organism-based
// assign met if IC50 falls strictly below 5 µg/mL, else not met (ties count as not met)

Request: For C=CCOc1ccc(CCC(C=C)c2ccc(OC)cc2OC)cc1 (stereo unspecified) , is the recorded IC50 below the cut-off of 5 µg/mL?
Result: not met

Request: Please answer likewise for C=CCOc1ccc(/C=C/C(CC)c2ccc(OC)cc2OC)cc1 (stereo unspecified)
Result: met

Request: Same again, this time with COc1ccc(C2CC(c3ccccc3Br)OC2C)c(OC)c1 (stereo unspecified)
Result: met

Request: Further, for CCC(/C=C/c1ccccc1F)c1cc(OC)cc(OC)c1 (stereo unspecified) ?
Result: not met

Request: Consider next the compound C=CCOc1ccc(CCCc2ccc(OC)cc2OC)cc1 in the same way.
Result: not met

Request: Same question for CCC(/C=C/c1ccccc1C(F)(F)F)c1ccc(Cl)cc1Cl (stereo unspecified) please.
Result: not met

* * *

system: Plasmodium falciparum; assay: Antiplasmodial activity against Plasmodium falciparum 3D7; type: functional, organism-based
experimentalReadout: log10 of IC50 (log10 of the value in µg/mL)
Kindly note that the scale is log10 and the underlying IC50 is in µg/mL.

Request: Give log10 of IC50 (Plasmodium falciparum) of the following compound: C=CC(/C=C/c1ccccc1Br)c1ccc(OC)cc1OC (configuration not stated)
Result: 0.94

Request: Param item: C=C[C@@H](/C=C/c1ccc(O)cc1)c1ccc(O)cc1
Result: 1.30

Request: Next: C=CC(/C=C/c1ccc(O)cc1)c1ccc(O)cc1 (racemic)
Result: 1.11

Request: # repeat for C=CCOc1ccc(C(O)CC(C=C)c2ccc(OC)cc2OC)cc1 (configuration not stated)
Result: 1.20

Request: Also CCC(/C=C/c1ccccc1CN(C)C)c1ccc(Cl)cc1Cl (configuration not stated) ?
Result: 0.61

Request: What do you have for C=CC(/C=C/c1ccccc1CN(C)C)c1ccc(Cl)cc1Cl (configuration not stated) ?
Result: 0.48

Request: Follow-up entry: CCC(/C=C/c1ccc(F)cc1)c1ccc(F)cc1 (configuration not stated)
Result: 1.11

Request: Another compound to look at: CCC(/C=C/c1ccc(OC)c(OC)c1OC)c1cccc(F)c1 (configuration not stated)
Result: 0.59

Request: Next compound up: C=C[C@H](/C=C/c1ccc(O)cc1)c1ccc(O)cc1
Result: 1.15

Request: Next entry: C=CCOc1ccc(/C=C/C(CCCC)c2ccc(OC)cc2OC)cc1 (configuration not stated)
Result: 0.43

Request: C=CC(/C=C/c1ccc(Cl)cc1Cl)c1ccc(OC)cc1OC (configuration not stated) , same question.
Result: 0.18

Request: Can you check C=CC(/C=C/c1ccccc1C(F)(F)F)c1ccc(Cl)cc1Cl (configuration not stated) next?
Result: 0.91

* * *

So I've got a bunch of compounds here, and I need their IC50 values.
system: Plasmodium falciparum; experiment: Antiplasmodial activity against Plasmodium falciparum 3D7; assay type: functional, organism-based
API: value field is a number in µg/mL; no unit string.

Request: Given C=CC(/C=C/c1ccc(OC)c(OC)c1OC)c1cccc(F)c1 (stereo not drawn) , state its recorded IC50.
Result: 6

Request: Similarly, CCC(/C=C/c1ccc(F)cc1F)c1ccc(OC)cc1OC (stereo not drawn) ?
Result: 3.9

Request: Next compound up: C=CCOc1ccc(CCC(CC)c2ccc(OC)cc2OC)cc1 (stereo not drawn)
Result: 3

Request: Also need C=CCOc1ccc(CCC(CCCC)c2ccc(OC)cc2OC)cc1 (stereo not drawn) , thanks.
Result: 2.2

Request: Thanks! And C=CC(/C=C/c1ccc(F)cc1)c1ccc(F)cc1 (stereo not drawn) ?
Result: 10

Request: Same thing, different compound: CCC(/C=C/c1ccc(OC)cc1OC)c1ccc(Cl)cc1Cl (stereo not drawn)
Result: 6

Request: Now consider C=CC(/C=C/c1ccccc1F)c1cc(OC)cc(OC)c1 (stereo not drawn) .
Result: 6

Request: Entry to check: COc1ccc(C2CC(c3ccc(Cl)cc3Cl)OC2C)c(OC)c1 (stereo not drawn)
Result: 6.9
